measurement.target: STING (Homo sapiens, UniProt Q86WV6, G230A/H232R/R293Q/R71H)
Sequence (Q86WV6 whole entry R71H/G230A/H232R/R293Q): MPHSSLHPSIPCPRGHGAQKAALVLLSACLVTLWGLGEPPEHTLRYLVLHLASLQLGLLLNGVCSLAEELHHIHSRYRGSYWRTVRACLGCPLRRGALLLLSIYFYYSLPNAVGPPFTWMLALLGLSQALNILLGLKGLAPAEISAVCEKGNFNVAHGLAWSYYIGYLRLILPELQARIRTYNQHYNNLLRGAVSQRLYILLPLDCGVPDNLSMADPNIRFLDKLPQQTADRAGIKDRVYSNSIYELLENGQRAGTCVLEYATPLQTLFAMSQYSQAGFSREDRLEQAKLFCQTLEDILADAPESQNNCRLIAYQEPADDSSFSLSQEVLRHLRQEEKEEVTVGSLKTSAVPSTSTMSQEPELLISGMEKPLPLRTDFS
method.notes: STING reporter assay in THP1-Dual KO-IFNAR2 cells (2′3′cGAMP stimulation, luciferase reporter)
setup.conditions: 15 μM 2′3′cGAMP stimulation, 24 h, read-out: Pharmaron, THP1_IFNAR2 STING 24 h Luci Normalized: GeoMean EC50
pEC50: −log10 of the molar value.
Entries and their measured pEC50 follow.

{"compound": "CO[C@H]1C[C@](C)(C(=O)Nc2c[nH]c3ccc(OCC[C@@H]4C[C@@H]5CN(CC(F)(F)F)C[C@@H]5C4)cc23)C1", "pEC50": "6.00 to 6.70"}
{"compound": "CC1(C(=O)Nc2c[nH]c3ccc(O[C@H]4C[C@@H](c5ccc(C(F)(F)F)cc5)C4)cc23)CCCO1 (stereo partly shown)", "pEC50": "5.30 to 6.00"}
{"compound": "C[C@]1(C(=O)Nc2c[nH]c3ccc(OCCc4ccc(C(F)(F)F)cc4)cc23)C[C@@H](CO)C1", "pEC50": "6.70 to 7.40"}
{"compound": "CC(=O)Nc1c[nH]c2ccc(CCOc3ccc(C(F)(F)F)cc3)c(Br)c12", "pEC50": "5.30 to 6.00"}
{"compound": "N#CC1CCC1C(=O)Nc1c[nH]c2ccc(O[C@H]3C[C@H](c4ccc(C(F)(F)F)cc4)C3)cc12 (stereo partly shown)", "pEC50": "6.00 to 6.70"}
{"compound": "CC(=O)Nc1c[nH]c2ccc(CCOc3ccc(OC(F)(F)F)c(F)c3)cc12", "pEC50": "6.70 to 7.40"}
{"compound": "CC(=O)Nc1c[nH]c2ccc(CCOc3ccc(C(F)(F)F)c(Br)c3)cc12", "pEC50": "6.00 to 6.70"}
{"compound": "CC(=O)Nc1c[nH]c2c(F)cc(COCc3ccc(C(F)(F)F)cc3)cc12", "pEC50": "5.30 to 6.00"}
{"compound": "CC1(C(=O)Nc2c[nH]c3ccc(OC4CC(c5ccc(C(F)(F)F)nc5)C4)cc23)CC1 (stereo in doubt) [Compound 580]", "pEC50": "6.70 to 7.40"}
{"compound": "N#CC1CCC1C(=O)Nc1c[nH]c2ccc(OCc3ccc(C(F)(F)F)cc3)cc12 (stereo not shown)", "pEC50": "6.00 to 6.70"}
{"compound": "CC1(C(=O)Nc2c[nH]c3ccc(OCCc4ccc(C(F)(F)F)cc4)cc23)CNC1", "pEC50": "5.30 to 6.00"}
{"compound": "O=C(Nc1c[nH]c2ccc(OCCc3ccc(C(F)(F)F)cc3)cc12)C1CC(F)(F)C1", "pEC50": "6.00 to 6.70"}
{"compound": "O=C(Nc1c[nH]c2ccc(OCCc3ccc(C(F)(F)F)cc3)cc12)C1CC1(F)Cl (stereo not shown)", "pEC50": "6.00 to 6.70"}
{"compound": "CC1(C(=O)Nc2c[nH]c3ccc(OCCc4ccc(C(F)(F)F)cc4)cc23)COC1", "pEC50": "6.70 to 7.40"}
{"compound": "CC(=O)Nc1c[nH]c2ccc(CCOc3cccc(C(F)(F)F)c3)cc12", "pEC50": "6.00 to 6.70"}
{"compound": "O=C(Nc1c[nH]c2ccc(/C=C/c3ccc(C(F)(F)F)cc3)cc12)C1CCC1", "pEC50": "4.00 to 5.30"}
